Cited source for all entries: the supplement of paper PMC11246515

assay: total protein half-life in vivo (active degradation + dilution); higher = more stable protein; details: wild type E. coli NCM3722; growth: C-lim chemostat; doubling time 6 h
Some sequences, each annotated with its measured total protein half-life in vivo.
Provide only the numeric value, understood in h.

Please review the following examples before continuing.
MAAKDRIQAIKQMVANDKKVTVSNLSGIFQVTEETIRRDLEKLEDEGFLTRTYGGAVLNTAMLTENIHFYKRASSFYEEKQLIARKALPFIDNKTTMAADSSSTVMELLKLLQDRSGLTLLTNSAEAIHVLAQSEIKVVSTGGELNKNTLSLQGRITKEIIRRYHVDIMVMSCKGLDINSGALDSNEAEAEIKKTMIRQATEVALLVDHSKFDRKAFVQLADFSHINYIITDKSPGAEWIAFCKDNNIQLVW
5.96
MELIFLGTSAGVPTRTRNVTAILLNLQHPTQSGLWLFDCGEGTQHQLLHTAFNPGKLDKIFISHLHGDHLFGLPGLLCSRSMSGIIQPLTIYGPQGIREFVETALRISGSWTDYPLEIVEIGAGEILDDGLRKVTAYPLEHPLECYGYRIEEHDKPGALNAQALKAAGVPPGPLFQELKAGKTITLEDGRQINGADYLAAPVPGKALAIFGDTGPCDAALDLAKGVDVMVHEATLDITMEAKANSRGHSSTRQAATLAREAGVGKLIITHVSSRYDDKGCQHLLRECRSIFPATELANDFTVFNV [P0A8V0]
5.64
MKLRDSLAENKSIRLQAEAETWQEAVKIGVDLLVAADVVEPRYYQAILDGVEQFGPYFVIAPGLAMPHGRPEEGVKKTGFSLVTLKKPLEFNHDDNDPVDILITMAAVDANTHQEVGIMQIVNLFEDEENFDRLRACRTEQEVLDLIDRTNAAA
3.97
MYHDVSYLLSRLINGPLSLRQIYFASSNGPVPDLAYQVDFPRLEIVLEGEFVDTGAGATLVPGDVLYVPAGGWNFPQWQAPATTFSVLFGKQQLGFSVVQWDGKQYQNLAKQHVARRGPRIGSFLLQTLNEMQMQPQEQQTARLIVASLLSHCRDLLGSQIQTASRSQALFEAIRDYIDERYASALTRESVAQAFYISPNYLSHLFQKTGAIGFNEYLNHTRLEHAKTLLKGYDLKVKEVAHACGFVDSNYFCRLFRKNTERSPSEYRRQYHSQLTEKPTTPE
6.09
MQSVDVAIVGGGMVGLAVACGLQGSGLRVAVLEQRVQEPLAANAPPQLRVSAINAASEKLLTRLGVWQDILSRRASCYHGMEVWDKDSFGHISFDDQSMGYSHLGHIVENSVIHYALWNKAHQSSDITLLAPAELQQVAWGENETFLTLKDGSMLTARLVIGADGANSWLRNKADIPLTFWDYQHHALVATIRTEEPHDAVARQVFHGEGILAFLPLSDPHLCSIVWSLSPEEAQRMQQASEDEFNRALNIAFDNRLGLCKVESARQVFPLTGRYARQFASHRLALVGDAAHTIHPLAGQGVNLGFMDAAELIAELKRLHRQGKDIGQYIYLRRYERSRKHSAALMLAGMQGFRDLFSGTNPAKKLLRDIGLKLADTLPGVKPQLIRQAMGLNDLPEWLR
5.52
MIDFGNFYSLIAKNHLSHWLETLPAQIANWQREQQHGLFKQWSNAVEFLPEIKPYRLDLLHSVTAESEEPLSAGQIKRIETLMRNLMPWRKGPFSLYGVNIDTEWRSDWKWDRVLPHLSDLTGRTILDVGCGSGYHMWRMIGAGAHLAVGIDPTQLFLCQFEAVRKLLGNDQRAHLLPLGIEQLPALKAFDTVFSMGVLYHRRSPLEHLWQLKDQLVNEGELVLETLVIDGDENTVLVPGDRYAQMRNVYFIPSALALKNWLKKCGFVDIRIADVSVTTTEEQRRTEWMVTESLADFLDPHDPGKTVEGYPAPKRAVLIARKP
5.84

*Q* Data request, read-out total protein half-life in vivo, for MGNRTKEDELYREMCRVVGKVVLEMRDLGQEPKHIVIAGVLRTALANKRIQRSELEKQAMETVINALVK [P0ACX5]
*A* 4.79

*Q* # get_value(readout='total protein half-life in vivo', item= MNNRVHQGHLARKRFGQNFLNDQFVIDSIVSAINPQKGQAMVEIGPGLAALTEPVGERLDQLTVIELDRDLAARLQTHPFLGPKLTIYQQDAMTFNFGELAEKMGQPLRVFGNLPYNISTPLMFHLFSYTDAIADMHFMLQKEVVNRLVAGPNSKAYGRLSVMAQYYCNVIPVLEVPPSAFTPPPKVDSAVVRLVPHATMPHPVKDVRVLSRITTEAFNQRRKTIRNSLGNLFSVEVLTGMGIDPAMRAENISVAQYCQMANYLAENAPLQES )
*A* 5.41

*Q* Item MRTLQGWLLPVFMLPMAVYAQEATVKEVHDAPAVRGSIIANMLQEHDNPFTLYPYDTNYLIYTQTSDLNKEAIASYDWAENARKDEVKFQLSLAFPLWRGILGPNSVLGASYTQKSWWQLSNSEESSPFRETNYEPQLFLGFATDYRFAGWTLRDVEMGYNHDSNGRSDPTSRSWNRLYTRLMAENGNWLVEVKPWYVVGNTDDNPDITKYMGYYQLKIGYHLGDAVLSAKGQYNWNTGYGGAELGLSYPITKHVRLYTQVYSGYGESLIDYNFNQTRVGVGVMLNDLF [P0A921] has what recorded total protein half-life in vivo?
*A* 6.37

*Q* Any idea what total protein half-life in vivo was measured for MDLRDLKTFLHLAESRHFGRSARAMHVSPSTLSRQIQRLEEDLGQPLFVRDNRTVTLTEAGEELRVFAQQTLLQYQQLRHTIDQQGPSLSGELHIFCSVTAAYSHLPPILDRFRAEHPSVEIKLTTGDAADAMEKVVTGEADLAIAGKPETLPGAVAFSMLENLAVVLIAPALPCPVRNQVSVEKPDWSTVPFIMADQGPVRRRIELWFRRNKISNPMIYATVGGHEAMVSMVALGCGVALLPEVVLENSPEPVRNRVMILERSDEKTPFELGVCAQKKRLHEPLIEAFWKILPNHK ?
*A* 5.47

*Q* If you can, please state the reported total protein half-life in vivo value of MGGISIWQLLIIAVIVVLLFGTKKLGSIGSDLGASIKGFKKAMSDDEPKQDKTSQDADFTAKTIADKQADTNQEQAKTEDAKRHDKEQV .
*A* 5.34
